target: E. coli NDH-1 NuoD mutant H224R (Escherichia coli, UniProt P0AFD4+P33599, H224R); test: Inhibition of dNADH oxidase activity, NuoD mutant H224R; details: read-out: app IC50, 50% inhibition of the dNADH oxidase activity
Sequence (P33599 whole entry H224R): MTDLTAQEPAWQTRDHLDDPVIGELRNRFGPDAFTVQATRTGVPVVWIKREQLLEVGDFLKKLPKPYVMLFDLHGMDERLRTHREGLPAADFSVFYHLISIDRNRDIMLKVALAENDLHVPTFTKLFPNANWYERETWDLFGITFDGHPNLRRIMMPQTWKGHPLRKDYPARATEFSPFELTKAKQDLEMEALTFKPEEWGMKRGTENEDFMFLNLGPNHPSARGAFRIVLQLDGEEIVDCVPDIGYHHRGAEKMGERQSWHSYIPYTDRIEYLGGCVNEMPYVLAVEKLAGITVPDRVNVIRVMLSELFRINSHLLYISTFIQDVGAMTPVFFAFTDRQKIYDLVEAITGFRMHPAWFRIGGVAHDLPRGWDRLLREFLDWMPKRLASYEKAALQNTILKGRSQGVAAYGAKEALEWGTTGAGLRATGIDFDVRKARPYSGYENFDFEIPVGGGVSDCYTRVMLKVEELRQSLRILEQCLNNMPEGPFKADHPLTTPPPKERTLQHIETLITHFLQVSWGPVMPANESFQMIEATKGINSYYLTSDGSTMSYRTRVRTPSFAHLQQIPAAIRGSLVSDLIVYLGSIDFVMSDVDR
Sequence (P0AFD4 whole entry): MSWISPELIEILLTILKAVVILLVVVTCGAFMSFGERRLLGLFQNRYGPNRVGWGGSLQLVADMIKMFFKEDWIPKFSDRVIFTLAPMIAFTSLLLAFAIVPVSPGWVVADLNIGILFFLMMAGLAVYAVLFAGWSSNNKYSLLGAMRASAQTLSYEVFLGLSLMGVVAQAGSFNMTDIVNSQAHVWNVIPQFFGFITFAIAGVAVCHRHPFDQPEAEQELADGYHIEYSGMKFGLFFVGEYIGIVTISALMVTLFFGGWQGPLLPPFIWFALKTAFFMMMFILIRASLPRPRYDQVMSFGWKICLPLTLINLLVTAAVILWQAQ
Sequence (P0AFC7 whole entry partner): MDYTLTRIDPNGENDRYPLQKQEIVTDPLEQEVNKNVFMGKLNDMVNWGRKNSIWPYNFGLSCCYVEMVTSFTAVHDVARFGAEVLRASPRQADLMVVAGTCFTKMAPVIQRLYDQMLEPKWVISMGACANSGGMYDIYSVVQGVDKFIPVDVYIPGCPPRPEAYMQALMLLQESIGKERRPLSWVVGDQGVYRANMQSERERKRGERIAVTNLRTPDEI
experimental-readout: pIC50
Numbers only, as −log10 of the molar value.

(Q) Consider the compound [N-]=[N+]=Nc1ccc2ncnc(NCCc3ccc(I)cc3)c2c1 [AzQ] and give its measured pIC50.
(A) 5.95

---

target: E. coli NDH-1 NuoD mutant H355A (Escherichia coli, UniProt P0AFD4+P33599, H355A); experiment: Inhibition of dNADH oxidase activity, NuoD mutant H355A
experimental-readout: IC50 (nM)
Give bare numbers, in nM.

(Q) Form field - read-out: IC50; system: E. coli NDH-1 NuoD mutant H355A (Escherichia coli, UniProt P0AFD4+P33599, H355A); submitted item: "CCCCCCCCCCCC[C@H](O)[C@H]1CC[C@H]([C@H]2CC[C@H]([C@H](O)CCCCCCCC[C@@H](O)CC3=C[C@H](C)OC3=O)O2)O1"
(A) 5

---

molecular target: E. coli NDH-1 NuoD mutant G235A (Escherichia coli, UniProt P0AFD4+P33599, G235A); test: Inhibition of dNADH oxidase activity, NuoD mutant G235A
experimental-readout: IC50
Report as: number unit

(Q) Consider the molecule CCCCCCCCCCCC[C@H](O)[C@H]1CC[C@H]([C@H]2CC[C@H]([C@H](O)CCCCCCCC[C@@H](O)CC3=C[C@H](C)OC3=O)O2)O1 [squamotacin] and give its measured IC50.
(A) 4 nM

---

molecular target: E. coli NDH-1 NuoD mutant Y273F (Escherichia coli, UniProt P0AFD4+P33599, Y273F); assay: Inhibition of dNADH oxidase activity, NuoD mutant Y273F; type: biochemical
Sequence (P33599 whole entry Y273F, one chain of several): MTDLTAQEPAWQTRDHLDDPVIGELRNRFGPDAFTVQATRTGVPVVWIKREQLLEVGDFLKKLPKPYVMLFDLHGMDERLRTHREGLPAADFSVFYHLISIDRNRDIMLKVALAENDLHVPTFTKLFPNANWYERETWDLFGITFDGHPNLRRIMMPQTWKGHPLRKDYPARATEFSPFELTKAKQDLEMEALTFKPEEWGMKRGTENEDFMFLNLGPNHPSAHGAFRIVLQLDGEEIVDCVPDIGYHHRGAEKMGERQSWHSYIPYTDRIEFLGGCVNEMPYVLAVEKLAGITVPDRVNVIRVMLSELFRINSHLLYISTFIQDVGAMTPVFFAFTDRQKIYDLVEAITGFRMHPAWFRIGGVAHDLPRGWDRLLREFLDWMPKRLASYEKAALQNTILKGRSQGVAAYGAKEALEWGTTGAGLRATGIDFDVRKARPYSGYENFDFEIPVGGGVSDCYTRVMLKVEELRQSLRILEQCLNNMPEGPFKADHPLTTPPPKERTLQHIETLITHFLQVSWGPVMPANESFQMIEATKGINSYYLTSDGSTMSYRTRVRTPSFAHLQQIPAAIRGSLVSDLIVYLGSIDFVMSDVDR
experimental-readout: IC50 (nM)
Numbers only, in nM.

(Q) Consider the compound CCCCCCCCCCCC[C@H](O)[C@H]1CC[C@H]([C@H]2CC[C@H]([C@H](O)CCCCCCCC[C@@H](O)CC3=C[C@H](C)OC3=O)O2)O1 [squamotacin] and give its measured IC50.
(A) 9

---

target: E. coli NDH-1 NuoD mutant G235V (Escherichia coli, UniProt P0AFD4+P33599, G235V); experiment: Inhibition of dNADH oxidase activity, NuoD mutant G235V
experimental-readout: IC50 (nM)
Numbers only, in nM.

(Q) Form field - read-out: IC50; system: E. coli NDH-1 NuoD mutant G235V (Escherichia coli, UniProt P0AFD4+P33599, G235V); submitted item: "CCCCCCCCCCCC[C@H](O)[C@H]1CC[C@H]([C@H]2CC[C@H]([C@H](O)CCCCCCCC[C@@H](O)CC3=C[C@H](C)OC3=O)O2)O1"
(A) 6

---

target: E. coli NDH-1 NuoH mutant K303A (Escherichia coli, UniProt P0AFC7+P0AFD4+P33599, K303A); assay: Inhibition of dNADH oxidase activity, NuoH mutant K303A
experimental-readout: IC50 (µM)
Give bare numbers, in µM.

(Q) Consider the compound CCCCCCCCCCCC[C@H](O)[C@H]1CC[C@H]([C@H]2CC[C@H]([C@H](O)CCCCCCCC[C@@H](O)CC3=C[C@H](C)OC3=O)O2)O1 [squamotacin] and give its measured IC50.
(A) 0.01

---

target: E. coli NDH-1 NuoD mutant R298K (Escherichia coli, UniProt P0AFD4+P33599, R298K); experiment: Inhibition of dNADH oxidase activity, NuoD mutant R298K
Sequence (P33599 whole entry R298K): as the sequence (P33599 whole entry H224R) above, with R224H, R298K counted along it
Sequence (P0AFD4 whole entry): as the sequence (P0AFD4 whole entry) above
Sequence (P0AFC7 whole entry partner): as the sequence (P0AFC7 whole entry partner) above
experimental-readout: IC50 (nM)
Answers are plain numbers, in nM.

(Q) Consider the compound CCCCCCCCCCCC[C@H](O)[C@H]1CC[C@H]([C@H]2CC[C@H]([C@H](O)CCCCCCCC[C@@H](O)CC3=C[C@H](C)OC3=O)O2)O1 [squamotacin] and give its measured IC50.
(A) 4

---

target: E. coli NDH-1 NuoD mutant R228A (Escherichia coli, UniProt P0AFD4+P33599, R228A); experiment: Inhibition of dNADH oxidase activity, NuoD mutant R228A; settings: app IC50, 50% inhibition of the dNADH oxidase activity
Sequence (P33599 whole entry R228A): as the sequence (P33599 whole entry H224R) above, with R224H, R228A counted along it
Sequence (P0AFD4 whole entry): as the sequence (P0AFD4 whole entry) above
Sequence (P0AFC7 whole entry partner): as the sequence (P0AFC7 whole entry partner) above
experimental-readout: pIC50
Answers are plain numbers, as −log10 of the molar value.

(Q) Consider the compound CCCCCCCCCCCC[C@H](O)[C@H]1CC[C@H]([C@H]2CC[C@H]([C@H](O)CCCCCCCC[C@@H](O)CC3=C[C@H](C)OC3=O)O2)O1 [squamotacin] and give its measured pIC50.
(A) 8.70

---

target: E. coli NDH-1 NuoH mutant Q44A (Escherichia coli, UniProt P0AFC7+P0AFD4+P33599, Q44A); test: Inhibition of dNADH oxidase activity, NuoH mutant Q44A
experimental-readout: pIC50
Answers are plain numbers, as −log10 of the molar value.

(Q) Consider the compound CCCCCCCCCCCC[C@H](O)[C@H]1CC[C@H]([C@H]2CC[C@H]([C@H](O)CCCCCCCC[C@@H](O)CC3=C[C@H](C)OC3=O)O2)O1 [squamotacin] and give its measured pIC50.
(A) 8.30

---

biological target: E. coli NDH-1 NuoD mutant H315R (Escherichia coli, UniProt P0AFD4+P33599, H315R); assay: Inhibition of dNADH oxidase activity, NuoD mutant H315R; format: biochemical
experimental-readout: pIC50
Numbers only, as −log10 of the molar value.

(Q) Consider the compound CCCCCCCCCCCC[C@H](O)[C@H]1CC[C@H]([C@H]2CC[C@H]([C@H](O)CCCCCCCC[C@@H](O)CC3=C[C@H](C)OC3=O)O2)O1 [squamotacin] and give its measured pIC50.
(A) 8.40

---

biological target: E. coli NDH-1 NuoD mutant G251V (Escherichia coli, UniProt P0AFD4+P33599, G251V); assay: Inhibition of dNADH oxidase activity, NuoD mutant G251V; conditions: app IC50, 50% inhibition of the dNADH oxidase activity
experimental-readout: IC50 (nM)
Answers are plain numbers, in nM.

(Q) Consider the compound CCCCCCCCCCCC[C@H](O)[C@H]1CC[C@H]([C@H]2CC[C@H]([C@H](O)CCCCCCCC[C@@H](O)CC3=C[C@H](C)OC3=O)O2)O1 [squamotacin] and give its measured IC50.
(A) 2

---

biological target: E. coli NDH-1 NuoD mutant G251A (Escherichia coli, UniProt P0AFD4+P33599, G251A); assay: Inhibition of dNADH oxidase activity, NuoD mutant G251A
experimental-readout: IC50
Report as: number unit

(Q) Form field - read-out: IC50; system: E. coli NDH-1 NuoD mutant G251A (Escherichia coli, UniProt P0AFD4+P33599, G251A); submitted item: "CCCCCCCCCCCC[C@H](O)[C@H]1CC[C@H]([C@H]2CC[C@H]([C@H](O)CCCCCCCC[C@@H](O)CC3=C[C@H](C)OC3=O)O2)O1"
(A) 4 nM

---

target: E. coli NDH-1 NuoD mutant Y273F (Escherichia coli, UniProt P0AFD4+P33599, Y273F); assay: Inhibition of dNADH oxidase activity, NuoD mutant Y273F; assay type: biochemical; details: read-out: app IC50, 50% inhibition of the dNADH oxidase activity; NuoD mutant Y273F
experimental-readout: IC50
Report as: number unit

(Q) Consider the compound "[N-]=[N+]=Nc1ccc2ncnc(NCCc3ccc(I)cc3)c2c1" and give its measured IC50.
(A) 2.53 µM

---

target: E. coli NDH-1 wild-type (Escherichia coli, UniProt P0AFD4+P33599); assay: Inhibition of dNADH oxidase activity in membrane vesicles, wild-type; assay type: biochemical; conditions: read-out: app IC50, 50% inhibition of the dNADH oxidase activity; WT, NuoH series (Table 4)
Sequence (P33599 whole entry): as the sequence (P33599 whole entry H224R) above, with R224H counted along it
Sequence (P0AFD4 whole entry): as the sequence (P0AFD4 whole entry) above
Sequence (P0AFC7 whole entry partner): as the sequence (P0AFC7 whole entry partner) above
experimental-readout: IC50
Report as: number unit

(Q) Form field - read-out: IC50; system: E. coli NDH-1 wild-type (Escherichia coli, UniProt P0AFD4+P33599); submitted item: "[N-]=[N+]=Nc1ccc2ncnc(NCCc3ccc(I)cc3)c2c1"
(A) 1080 nM

---

molecular target: E. coli NDH-1 NuoH mutant E216A (Escherichia coli, UniProt P0AFC7+P0AFD4+P33599, E216A); experiment: Inhibition of dNADH oxidase activity, NuoH mutant E216A
experimental-readout: IC50 (nM)
Give bare numbers, in nM.

(Q) Consider the compound "CCCCCCCCCCCC[C@H](O)[C@H]1CC[C@H]([C@H]2CC[C@H]([C@H](O)CCCCCCCC[C@@H](O)CC3=C[C@H](C)OC3=O)O2)O1" and give its measured IC50.
(A) 8

---

biological target: E. coli NDH-1, other NuoD mutants (Escherichia coli, UniProt P0AFD4+P33599); test: Inhibition of dNADH oxidase activity, other NuoD mutants; conditions: read-out: IC50 values; all other NuoD mutants (other than G225A, Y273F)
experimental-readout: pIC50
Give bare numbers, as −log10 of the molar value.

(Q) Consider the compound "[N-]=[N+]=Nc1ccc2ncnc(NCCc3ccc(I)cc3)c2c1" and give its measured pIC50.
(A) 6.00
